- target-under-test: Substance-P receptor (Homo sapiens) (UniProt P25103)
- Sequence (P25103 whole entry): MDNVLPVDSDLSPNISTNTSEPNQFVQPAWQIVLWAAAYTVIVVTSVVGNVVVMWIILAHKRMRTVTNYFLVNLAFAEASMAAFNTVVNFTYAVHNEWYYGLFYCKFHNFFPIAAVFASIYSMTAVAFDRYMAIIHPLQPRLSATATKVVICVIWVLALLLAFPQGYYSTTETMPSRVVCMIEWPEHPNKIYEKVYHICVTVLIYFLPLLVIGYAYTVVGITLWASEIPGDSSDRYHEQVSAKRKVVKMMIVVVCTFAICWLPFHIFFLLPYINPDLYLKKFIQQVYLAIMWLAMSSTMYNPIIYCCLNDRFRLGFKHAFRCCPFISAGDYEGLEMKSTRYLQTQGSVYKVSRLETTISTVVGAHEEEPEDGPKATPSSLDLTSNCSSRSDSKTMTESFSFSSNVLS
- experimental-details: Antagonist activity at recombinant human NK1R assessed as inhibition of agonist-induced effect at 10 uM by aequorin reporter based assay
- Type: functional
Would you mind classing the entries by inhibition? Ranges: LOW: < 10%; MID: ≥ 10% and < 30%; HIGH: ≥ 30%

Determine which band this molecule sits in: CN(CCCNC(=O)c1ccc(Br)cc1)Cc1ccccc1 LOW

----------
The compounds listed here are annotated with their inhibition.
- target-under-test: Adenosine receptor A3 (Homo sapiens)
- Sequence (whole entry): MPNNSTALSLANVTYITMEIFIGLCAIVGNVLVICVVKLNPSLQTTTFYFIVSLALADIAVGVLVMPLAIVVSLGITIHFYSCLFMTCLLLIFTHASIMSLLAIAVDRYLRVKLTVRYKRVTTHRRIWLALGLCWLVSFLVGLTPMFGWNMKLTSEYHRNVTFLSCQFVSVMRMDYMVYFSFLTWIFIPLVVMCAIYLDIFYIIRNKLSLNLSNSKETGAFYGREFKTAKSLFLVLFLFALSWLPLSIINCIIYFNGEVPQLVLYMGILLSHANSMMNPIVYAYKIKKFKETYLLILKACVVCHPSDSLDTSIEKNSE
- experimental-details: Antagonist activity at recombinant human adenosine A3 receptor assessed as inhibition of agonist-induced cAMP induction at 10 uM by HTRF assay
- Format: functional
Number in %, nothing else.

Measured inhibition (Adenosine receptor A3 (Homo sapiens)), entry CN(CCCNC(=O)c1ccc(Cl)cc1)CCc1ccccc1 : 10
